Tested on: UACC-62 melanoma
measurement_description: NCI-60 one-dose screen, 48 h
details: 10 µM unless noted
Compounds without any hit were thinned out: in the full panel of roughly 83,000, 20% have a hit. Activity calls are given as the source filed them. How the source made its calls: active means growth percent below 10; inactive means the rest.
Classes used: active, inactive

>  <compound>
CCN(CC)c1ccc2c(c1)Oc1nc(N)c(C#N)c(N)c1C2Sc1ccc(SC)cc1 (stereo not given)

>  <assigned_class>
active

$$$$
>  <compound>
CCc1nc(N)nc(N)c1C#CC(C)c1ccc(-c2ccncc2)cc1Cl (stereo not given)

>  <assigned_class>
inactive

$$$$
>  <compound>
NC(=O)c1cc(I)ccc1NC(=O)/C=C/c1ccccc1Cl

>  <assigned_class>
inactive

$$$$
>  <compound>
COc1cc(-c2nc3cc(Cl)c(Cl)cc3[nH]2)ccc1OCC(=O)N=Nc1c(O)[nH]c2ccccc12

>  <assigned_class>
active

$$$$
>  <compound>
CN1C(=O)C2(SCC(C(=O)NCc3ccccc3)N2C(=O)C2CCCCC2)c2ccccc21 (stereo not given)

>  <assigned_class>
inactive

$$$$
>  <compound>
COc1ccc(/C=C/C(=O)c2cc(O)ccc2O)cc1

>  <assigned_class>
inactive

$$$$
>  <compound>
O=Nc1c(O)c(Cl)cc2ccccc12

>  <assigned_class>
inactive

$$$$
>  <compound>
CCOC(=O)c1c(C(=O)OCC)c2cc(-c3ccn4c(C(=O)c5ccccc5)c(C(=O)OCC)c(C(=O)OCC)c4c3)ccn2c1C(=O)c1ccccc1

>  <assigned_class>
inactive

$$$$
>  <compound>
Cc1cc(N2CCOCC2)nc(NCc2cc(Nc3ccnc4cc(Cl)ccc34)ccc2F)n1

>  <assigned_class>
active

$$$$
>  <compound>
CCC(=O)c1ccc(Cl)s1

>  <assigned_class>
inactive

$$$$
>  <compound>
COc1nc2c(c(=O)n1C)CN(Cc1ccccc1)C=N2

>  <assigned_class>
inactive

$$$$
>  <compound>
N#Cc1c(N)n(CCNC(=O)c2ccccc2)c2nc3ccccc3nc12

>  <assigned_class>
inactive

$$$$
>  <compound>
O=C1/C(=C/C(Cl)=C/c2ccccc2)SC(=S)N1CCc1ccc(O)cc1

>  <assigned_class>
active

$$$$
>  <compound>
Cc1cc(C)nc(SC2=C(Nc3ccc(O)cc3)C(=O)N(Cc3ccccc3)C2=O)n1

>  <assigned_class>
inactive

$$$$
>  <compound>
COc1ccc(-c2nc3ccc(-c4nc5ccc(N6CCN(c7ccccc7)CC6)cc5[nH]4)cc3[nH]2)cc1OC

>  <assigned_class>
inactive

$$$$
>  <compound>
O=C(/C=C/c1cc(CN2CCOCC2)c(O)c2ncccc12)c1cc(CN2CCOCC2)c(O)c2ncccc12

>  <assigned_class>
inactive

$$$$
>  <compound>
O=S(=O)(Nc1ccc(OC(F)F)cc1)c1ccc(-c2cnc(C3CC3)o2)cc1

>  <assigned_class>
inactive

$$$$
>  <compound>
O=C1c2cc3c(cc2-c2c1c1ccc(F)cc1c(=O)n2CCCNCCO)OCO3

>  <assigned_class>
active

$$$$
>  <compound>
FC(F)(F)c1[nH]ncc1-c1nc2ccc3n[nH]c(C#Cc4cccnc4)c3c2c2c1CCCC2

>  <assigned_class>
inactive

$$$$
>  <compound>
COc1cccc(/C=C2\Oc3cc(OCCN4CCCC4)ccc3C2=O)c1

>  <assigned_class>
inactive

$$$$

---

Test system: A549/ATCC NSCLC
measurement_description: NCI-60 one-dose screen, 48 h (100 = growth as untreated, 0 = no growth, -100 = all killed)
details: 10 µM unless noted
The panel holds about 83,000 compounds, 20% with a hit somewhere; the sample as a whole holds those more often.
Property: growth; scope: individual compounds
experimental_endpoint: growth (%)

>  <compound>
O=C(/C=C/C=C/c1ccc2c(c1)OCO2)N/N=C\c1ccc(O)cc1O

>  <number>
36.1

$$$$
>  <compound>
O=C(CN1CCCCC1)Nc1ccc2oc(=O)ccc2c1

>  <number>
100

$$$$
>  <compound>
O=S(=O)(Nc1ccc(I)cc1F)c1ccc(-c2cnc(C3CC3)o2)cc1

>  <number>
50.6

$$$$
>  <compound>
C/C1=C\CC[C@@]2(C)O[C@H]2[C@H]2OC(=O)C(CN3CCN(CC4C(=O)O[C@H]5[C@H]4CC/C(C)=C/CC[C@@]4(C)O[C@@H]54)CC3)[C@@H]2CC1 (some centres undefined)

>  <number>
93.5

$$$$
>  <compound>
CC(=O)c1nc2ccccc2n1CC(=O)c1cccc(Cl)c1

>  <number>
15.2

$$$$
>  <compound>
COc1ccc(C2Nc3c(c(C(C)(C)C)nn3-c3ccccc3)C(=O)CS2)cc1 (centres undefined)

>  <number>
89.3

$$$$
>  <compound>
CCCCCC(=O)Oc1ccc(/C(=C(\C)c2ccc(OC)cc2)c2ccc(OCCN3CCCCC3)cc2)cc1

>  <number>
53.2

$$$$
>  <compound>
O=C1OC(c2ccccc2)C(O)=C1c1ccccc1 (centres undefined)

>  <number>
86.6

$$$$
>  <compound>
O=C1c2cccc3cccc(c23)C(=O)N1CCCCN1CCN(CCCCOc2ccc(-c3nc4ccc(N5CCOCC5)cc4[nH]3)cc2)CC1

>  <number>
39.6

$$$$
